Origin of values: ChEMBL document CHEMBL1961873

Below, each entry is listed alongside its reported inhibition.
ASSAY SYSTEM: Homeodomain-interacting protein kinase 1 (Homo sapiens) (UniProt Q86Z02);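 note: values are mean percent inhibition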
Sequence (Q86Z02 whole entry, looked up): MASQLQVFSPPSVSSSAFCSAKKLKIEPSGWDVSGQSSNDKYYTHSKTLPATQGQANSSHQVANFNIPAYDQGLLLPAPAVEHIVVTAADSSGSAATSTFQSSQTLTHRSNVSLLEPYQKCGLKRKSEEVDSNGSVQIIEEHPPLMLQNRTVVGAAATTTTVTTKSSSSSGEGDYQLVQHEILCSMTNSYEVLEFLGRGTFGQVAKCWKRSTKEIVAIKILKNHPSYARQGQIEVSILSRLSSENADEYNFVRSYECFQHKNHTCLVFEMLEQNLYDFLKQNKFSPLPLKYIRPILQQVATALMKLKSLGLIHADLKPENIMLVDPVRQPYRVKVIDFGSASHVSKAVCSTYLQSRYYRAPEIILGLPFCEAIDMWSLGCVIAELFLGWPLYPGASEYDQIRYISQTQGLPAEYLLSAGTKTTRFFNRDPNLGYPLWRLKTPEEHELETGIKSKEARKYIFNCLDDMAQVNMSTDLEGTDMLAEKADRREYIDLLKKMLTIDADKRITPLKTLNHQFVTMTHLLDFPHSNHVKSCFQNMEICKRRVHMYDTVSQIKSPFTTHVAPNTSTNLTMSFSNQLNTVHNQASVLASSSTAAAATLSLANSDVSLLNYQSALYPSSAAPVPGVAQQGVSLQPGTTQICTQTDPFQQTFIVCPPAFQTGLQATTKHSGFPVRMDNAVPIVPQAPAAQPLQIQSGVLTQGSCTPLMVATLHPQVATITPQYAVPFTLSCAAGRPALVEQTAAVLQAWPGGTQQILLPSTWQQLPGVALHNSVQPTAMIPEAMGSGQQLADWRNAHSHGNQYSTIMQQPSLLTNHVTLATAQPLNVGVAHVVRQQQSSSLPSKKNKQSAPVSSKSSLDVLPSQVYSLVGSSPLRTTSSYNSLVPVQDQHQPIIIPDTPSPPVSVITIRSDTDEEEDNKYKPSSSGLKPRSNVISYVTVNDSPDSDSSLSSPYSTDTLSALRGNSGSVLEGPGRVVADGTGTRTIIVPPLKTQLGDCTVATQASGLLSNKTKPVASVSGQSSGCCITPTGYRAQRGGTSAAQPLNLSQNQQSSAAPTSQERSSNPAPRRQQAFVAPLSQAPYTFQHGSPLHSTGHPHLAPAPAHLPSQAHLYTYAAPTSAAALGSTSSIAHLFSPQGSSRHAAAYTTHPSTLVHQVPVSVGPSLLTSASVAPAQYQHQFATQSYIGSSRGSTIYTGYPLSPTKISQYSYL
CONDITIONS: at 1 µM
OBSERVED PROPERTY: inhibition

# SAMPLE SMILES, VAL
data = [
    ("COc1cccc(-n2ncc3c(N/N=C/c4ccc(C(=O)NCCN(C)C)cc4)ncnc32)c1", "78.8%"),
    ("Cc1c2ccc(N(C)c3ccnc(Nc4cccc(S(N)(=O)=O)c4)n3)cc2nn1C", "-0.84%"),
    ("OCCCNc1nccc(-c2c(-c3ccc(F)cc3)nn3cc(C(F)(F)F)ccc23)n1", "3.61%"),
    ("CNC(=O)c1ncccc1Nc1nc(Nc2cc3c(cc2OC)CCCN3C(=O)CN(C)C)nc2[nH]ccc12", "22.2%"),
    ("Cn1c(-c2nonc2N)nc2cnccc21", "13.9%"),
    ("CCOc1ccc2c(-c3ccnc(Nc4cc(OC)cc(C(F)(F)F)c4)n3)cnn2n1", "61.9%"),
    ("Cc1cc(O)cc(C)c1/C=C/c1cncc(C(=O)OC(C)(C)C)c1", "7.33%"),
    ("O=C(O[C@H]1CN[C@H](C#Cc2cc3ncnc(Nc4ccc5c(ccn5Cc5cc(F)ccc5F)c4)c3s2)C1)N1CCOCC1", "-1.46%"),
    ("CS(=O)(=O)CCNCc1ccc(-c2ccc3ncnc(Nc4ccc(OCc5cccc(C(F)(F)F)c5)cc4)c3c2)o1", "2.78%"),
    ("COc1ccc2ncn(-c3cc(O[C@H](C)c4ccccc4C(F)(F)F)c(C(N)=O)s3)c2c1", "2.1%"),
    ("COc1ccc(-c2nn3ncccc3c2-c2ccnc(Nc3ccc(F)c(F)c3)n2)cc1", "4.38%"),
]

----------
System: Proto-oncogene tyrosine-protein kinase receptor Ret (Homo sapiens), P07949 [V804L]
Sequence (P07949 whole entry V804L): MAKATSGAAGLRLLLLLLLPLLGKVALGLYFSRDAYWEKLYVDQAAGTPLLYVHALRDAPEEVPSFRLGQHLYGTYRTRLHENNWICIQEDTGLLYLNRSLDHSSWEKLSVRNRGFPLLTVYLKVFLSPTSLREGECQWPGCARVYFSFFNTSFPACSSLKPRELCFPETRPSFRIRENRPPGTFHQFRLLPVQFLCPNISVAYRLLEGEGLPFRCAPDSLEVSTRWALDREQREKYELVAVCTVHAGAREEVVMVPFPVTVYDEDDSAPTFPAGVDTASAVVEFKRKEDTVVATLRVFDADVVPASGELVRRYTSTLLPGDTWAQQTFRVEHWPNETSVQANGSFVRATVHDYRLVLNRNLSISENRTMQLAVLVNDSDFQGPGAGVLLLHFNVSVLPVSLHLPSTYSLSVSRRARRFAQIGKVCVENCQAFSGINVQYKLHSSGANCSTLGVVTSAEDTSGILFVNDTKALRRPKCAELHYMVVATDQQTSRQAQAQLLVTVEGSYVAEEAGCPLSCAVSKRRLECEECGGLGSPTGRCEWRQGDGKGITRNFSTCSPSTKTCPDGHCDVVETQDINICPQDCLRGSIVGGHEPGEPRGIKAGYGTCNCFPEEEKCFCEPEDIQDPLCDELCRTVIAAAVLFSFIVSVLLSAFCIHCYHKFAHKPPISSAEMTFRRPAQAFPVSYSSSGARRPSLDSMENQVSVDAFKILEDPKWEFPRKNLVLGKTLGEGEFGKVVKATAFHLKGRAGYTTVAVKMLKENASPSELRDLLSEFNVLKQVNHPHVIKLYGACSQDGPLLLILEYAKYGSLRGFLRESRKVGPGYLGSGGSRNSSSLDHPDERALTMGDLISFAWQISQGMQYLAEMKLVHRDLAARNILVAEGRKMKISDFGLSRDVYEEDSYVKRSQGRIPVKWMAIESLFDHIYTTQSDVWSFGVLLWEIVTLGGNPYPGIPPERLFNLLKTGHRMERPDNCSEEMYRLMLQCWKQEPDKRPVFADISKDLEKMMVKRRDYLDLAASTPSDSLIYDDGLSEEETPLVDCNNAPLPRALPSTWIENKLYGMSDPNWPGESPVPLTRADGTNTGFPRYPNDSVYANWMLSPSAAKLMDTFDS
CONDITIONS: at 1 µM
Decision: inhibition compared against 20%; not below it gives y, below it gives n.

# SAMPLE SMILES, CLASS LABEL
records = [
    ("NS(=O)(=O)c1cccc(N/C=C2\\C(=O)Nc3ccccc32)c1", "y"),
    ("COc1cc(Nc2ncc(-c3ccccc3)o2)cc(OC)c1", "n"),
    ("COC(=O)Nc1nc2cc(Oc3ccc(NC(=O)Nc4ccccc4)cc3)ccc2[nH]1", "n"),
    ("CN(C)CCNC(=O)Nc1ccc(N(C)c2ccnc(Nc3ccc(CS(C)(=O)=O)cc3)n2)cc1", "n"),
    ("Fc1ccc(Nc2nccc(-c3c(-c4ccc(C(F)(F)F)cc4)nn4ncccc34)n2)cc1F", "n"),
    ("Cc1nnc(-c2cccc(-c3ccc(C(=O)NCC4CC4)cc3)c2)o1", "n"),
    ("Fc1cccc(COc2ccc(Nc3ncncc3C#Cc3ccccc3)cc2Cl)c1", "n"),
    ("CCOc1ccc2c(-c3ccnc(Nc4cc(OC)cc(C(F)(F)F)c4)n3)cnn2n1", "n"),
    ("CS(=O)(=O)CCNCc1ccc(-c2ccc3ncnc(Nc4ccc(OCc5cccc(C(F)(F)F)c5)cc4)c3c2)o1", "n"),
    ("CN(c1ccc(NC(=O)NCCN2CCOCC2)cc1)c1ccnc(Nc2ccc(CS(C)(=O)=O)cc2)n1", "y"),
    ("FC(F)(F)CNc1nccc(-c2cnn3ncccc23)n1", "n"),
    ("O=C(Nc1n[nH]c2nnc(-c3cccnc3)cc12)C1CC1", "n"),
    ("COc1ccc2ncn(-c3cc(O[C@H](C)c4ccccc4C(F)(F)F)c(C(N)=O)s3)c2c1", "n"),
    ("COc1cccc(Nc2nccc(-c3cnn4ncccc34)n2)c1", "y"),
    ("Cc1c2ccc(N(C)c3ccnc(Nc4cccc(S(N)(=O)=O)c4)n3)cc2nn1C", "y"),
    ("O=C(O[C@H]1CN[C@H](C#Cc2cc3ncnc(Nc4ccc5c(ccn5Cc5cc(F)ccc5F)c4)c3s2)C1)N1CCOCC1", "n"),
    ("NS(=O)(=O)c1ccc(N/N=C2\\C(=O)Nc3cccc(CCc4ccncc4)c32)cc1", "y"),
    ("COc1cccc(-n2ncc3c(N/N=C/c4ccc(C(=O)NCCN(C)C)cc4)ncnc32)c1", "y"),
    ("O=C(O[C@H]1CN[C@H](C#Cc2cc3ncnc(Nc4ccc(OCc5cccc(F)c5)c(Cl)c4)c3s2)C1)N1CCOCC1", "n"),
    ("CCN1CCC(C(=O)Nc2n[nH]c3nnc(-c4cccc(F)c4F)cc23)CC1", "n"),
    ("c1cnn2ncc(-c3ccnc(NCCCN4CCOCC4)n3)c2c1", "n"),
]
